// data source = ChEMBL document CHEMBL5608250

assayed-target: Human immunodeficiency virus type 1 integrase (Human immunodeficiency virus 1, UniProt Q7ZJM1)
Sequence (Q7ZJM1 whole entry): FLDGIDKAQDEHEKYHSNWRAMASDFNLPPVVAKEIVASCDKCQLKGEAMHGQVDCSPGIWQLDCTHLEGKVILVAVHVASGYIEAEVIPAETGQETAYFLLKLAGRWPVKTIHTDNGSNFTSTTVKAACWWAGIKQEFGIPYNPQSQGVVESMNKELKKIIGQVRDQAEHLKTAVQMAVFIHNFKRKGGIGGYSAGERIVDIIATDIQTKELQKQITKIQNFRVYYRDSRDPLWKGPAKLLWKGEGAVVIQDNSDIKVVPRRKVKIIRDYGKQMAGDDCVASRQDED
assay-notes: Inhibition of HIV1 integrase activity by measuring multimerization of His-tagged integrase/FLAG-tagged integrase incubated for 3 hrs by […] HTRF assay
Each record here notes measured EC50.

[
  {
    "structure-as-smiles": "CCOC(=O)c1cn(Cc2ccc(F)cc2)c2ccc(OCc3cccc4ccccc34)cc2c1=O",
    "EC50": "> 200 µM"
  }
]

# EC50 lookup, item O=C(O)c1cn(Cc2ccc(F)cc2)c2ccc(OCc3ccc(OCc4ccccc4)cc3)cc2c1=O
> 2 µM

# EC50 lookup, item O=C(O)c1cn(Cc2ccc(F)cc2)c2ccc(OCc3cccc4ccccc34)cc2c1=O
> 200 µM

# EC50 lookup, item CCOC(=O)/C(O)=C/C(=O)c1cc2c(=O)c(C(=O)/C=C(\O)C(=O)OCC)cn(Cc3ccc(F)cc3)c2cc1N(C)C
> 200 µM
